- TEST TARGET: human adenosine A1 receptor (Homo sapiens)
- Sequence (P30542 whole entry): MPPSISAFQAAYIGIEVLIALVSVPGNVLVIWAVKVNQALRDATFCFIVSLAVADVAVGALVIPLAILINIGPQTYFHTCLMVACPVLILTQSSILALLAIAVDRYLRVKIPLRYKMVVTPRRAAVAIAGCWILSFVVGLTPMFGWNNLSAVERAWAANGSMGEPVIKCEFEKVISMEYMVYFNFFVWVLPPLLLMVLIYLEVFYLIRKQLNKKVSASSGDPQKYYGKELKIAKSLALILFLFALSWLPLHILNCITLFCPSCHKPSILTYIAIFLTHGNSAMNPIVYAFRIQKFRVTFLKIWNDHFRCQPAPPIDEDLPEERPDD
- ASSAY REMARKS: Adenosine A1 Receptor Functional Assay (A1GAL2)
- CONDITIONS USED: CHO-K1 cells overexpressing human A1, cAMP inducible beta-galactosidase reporter, antagonist vs 4 nM r-PIA/1 uM Forskolin challenge
ASSAY READOUT: IC50 (nM)

Recorded results for 8 compounds are shown here.
# IC50 of Nc1nc(-c2ccc(F)cc2)c2c(n1)-c1c(cccc1-c1ccc(N3CCN(Cc4ccccc4)CC3)cc1)C2=O [Example 4] = 3100

# IC50 of COc1ccc(-c2cccc3c2-c2nc(N)nc(-c4ccccc4)c2C3=O)cc1 [Example 17] = 330

# IC50 of CCN1CCN(c2ccc(-c3cccc4c3-c3nc(N)nc(-c5ccc(F)cc5)c3C4=O)cc2)CC1 [Example 12] = 760

# IC50 of Nc1nc(-c2ccccc2)c2c(n1)-c1c(cccc1-c1ccccc1)C2=O [Example 14] = 570

# IC50 of CCC(CC)N1CCN(c2ccc(-c3cccc4c3-c3nc(N)nc(-c5ccc(F)cc5)c3C4=O)cc2)CC1 [Example 5] = 4200

# IC50 of COCCN1CCN(c2ccc(-c3cccc4c3-c3nc(N)nc(-c5ccc(F)cc5)c3C4=O)cc2)CC1 [Example 8] = 230

# IC50 of CCCN1CCN(c2ccc(-c3cccc4c3-c3nc(N)nc(-c5ccc(F)cc5)c3C4=O)cc2)CC1 [Example 15] = 520

# IC50 of CC(C)CN1CCN(c2ccc(-c3cccc4c3-c3nc(N)nc(-c5ccc(F)cc5)c3C4=O)cc2)CC1 [Example 2] = 4200

[a] Nc1nc(-c2ccc(F)cc2)c2c(n1)-c1c(cccc1-c1ccc(OCCN3CCOCC3)cc1)C2=O [Example 13]
[b] CC(C)N1CCN(c2ccc(-c3cccc4c3-c3nc(N)nc(-c5ccc(F)cc5)c3C4=O)cc2)CC1 [Example 9]
Choose between a and b : whose measured IC50 value is numerically larger? Label of pick, please. b
(b: 1800 nM, a: 270 nM)

[A] CC(C)CCN1CCN(c2ccc(-c3cccc4c3-c3nc(N)nc(-c5ccc(F)cc5)c3C4=O)cc2)CC1 [Example 11]
[B] Cc1cccc(-c2cccc3c2-c2nc(N)nc(-c4ccc(F)cc4)c2C3=O)c1 [Example 16]
Choose between A and B : whose measured IC50 value is numerically larger? Label of pick, please. B
(B: 1800 nM, A: 1100 nM)

[a] Nc1nc(-c2ccc(F)cc2)c2c(n1)-c1c(cccc1-c1ccc(N3CCN(CCC(F)(F)F)CC3)cc1)C2=O [Example 1]
[b] Nc1nc(-c2ccc(F)cc2)c2c(n1)-c1c(cccc1-c1ccc(N3CCN(CC4CC4)CC3)cc1)C2=O [Example 7]
// compare measured IC50 between a and b ; output the lower one Label of pick, please. b

[I] CCC(C)N1CCN(c2ccc(-c3cccc4c3-c3nc(N)nc(-c5ccc(F)cc5)c3C4=O)cc2)CC1 (centres unmarked) [Example 6]
[II] N#Cc1ccc(-c2cccc3c2-c2nc(N)nc(-c4ccc(F)cc4)c2C3=O)cc1 [Example 10]
[III] Nc1nc(-c2ccc(F)cc2)c2c(n1)-c1c(cccc1-c1cccc(F)c1)C2=O [Example 3]
// smallest IC50 at index 0, largest at the end Lab note: final answer is the ordered label list. II, I, III

Recorded values, source patent US20110105492A1.
